System: MDA-MB-231
test summary: NCI tumour cell line growth inhibition, 48 h
Activity calls are given as the source filed them. No stated cut-off is given here; in the data, active = GI50 up to about 1.1 µM and inactive = higher.
measured parameter: GI50

INSERT INTO assay_data (molecule, measured_parameter, endpoint_result) VALUES
  ('COc1cc(CSc2ccc(O)cc2)cc(OC)c1OC', 'GI50', '43.2 µM (inactive)');

Quick one: give me GI50 for each item below, same order please.
1. Cc1nc(N)nc(S)c1CCCNc1ccccc1
2. O=C1c2ccccc2OCC12OC21C=CC(Cl)=CC1 (stereo unspecified)
3. COc1cc2c(/C=C3/C(=O)Nc4ccc(Cl)cc43)c(Cl)n(Cc3ccccc3)c2cc1C

Given back:
1: > 100 µM (inactive); 2: 22 µM (inactive); 3: 2.48 µM (inactive)

I have 2 molecules here; please give me GI50 for each one.
1. COc1cccc(NC(=O)c2c(SC)c(C#N)c(=O)n(N)c2N)c1
2. O=C1/C(=C\c2ccc([N+](=O)[O-])cc2)N(S(=O)(=O)c2ccccc2)c2ncccc21

Given back:
95.7 µM (inactive)
16.1 µM (inactive)
